All figures here come from patent US20110237659A1.

Target: Human TRPV3 (Homo sapiens)
Construct: expressed in transfected cells; host or cells: CHO cells
Sequence (Q8NET8 whole entry): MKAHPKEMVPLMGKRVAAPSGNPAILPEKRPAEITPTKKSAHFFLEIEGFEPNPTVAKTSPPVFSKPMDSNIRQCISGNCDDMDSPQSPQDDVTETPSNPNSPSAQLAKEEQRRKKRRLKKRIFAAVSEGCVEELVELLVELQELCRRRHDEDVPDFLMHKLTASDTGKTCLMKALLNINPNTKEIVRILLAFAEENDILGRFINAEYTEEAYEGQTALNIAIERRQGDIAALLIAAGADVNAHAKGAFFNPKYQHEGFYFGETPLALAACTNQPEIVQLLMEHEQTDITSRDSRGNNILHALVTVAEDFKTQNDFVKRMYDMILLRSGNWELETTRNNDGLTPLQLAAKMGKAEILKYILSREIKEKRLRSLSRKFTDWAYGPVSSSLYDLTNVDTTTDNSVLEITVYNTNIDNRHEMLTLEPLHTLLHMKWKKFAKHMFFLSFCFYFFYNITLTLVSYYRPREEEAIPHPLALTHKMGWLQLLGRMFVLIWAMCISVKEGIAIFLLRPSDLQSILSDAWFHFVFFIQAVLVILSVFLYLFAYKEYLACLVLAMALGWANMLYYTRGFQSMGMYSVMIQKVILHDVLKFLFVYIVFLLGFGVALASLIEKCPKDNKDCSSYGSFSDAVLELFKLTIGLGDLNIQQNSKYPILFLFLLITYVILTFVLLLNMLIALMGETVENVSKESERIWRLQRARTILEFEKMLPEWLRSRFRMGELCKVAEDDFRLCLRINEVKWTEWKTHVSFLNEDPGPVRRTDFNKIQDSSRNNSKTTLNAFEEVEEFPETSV
Assay: 45Calcium uptake assay: inhibition of 2-APB induced cellular uptake of radioactive calcium in human TRPV3 expressing CHO cells
Format: cell-based
Details: 10.0 μM test compound, 2-APB 500 μM, read-out: Percentage inhibition at 10.0 μM
OBSERVATION_TYPE: inhibition at 10 µM (%)

COc1cccc(/C=C/c2oc3ccc(Cl)cc3c(=O)c2-c2ccc(C#N)cc2)c1OCC1CC1
87.7
COc1cccc(/C=C/c2oc3ccc(F)cc3c(=O)c2-c2ccc(C#N)cc2)c1OCC(C)C
87.8
COc1cccc(/C=C/c2oc3cc(F)ccc3c(=O)c2-c2ccc(C#N)cc2)c1OCC(C)(C)C
91.2
COc1cccc(/C=C/c2oc3cc(F)ccc3c(=O)c2-c2ccc(C#N)cc2)c1OC1CCCC1
92.6
